Reference source: paper PMC9090415

tested_system: P. falciparum apicoplast DNA polymerase (Pf-apPOL) (Plasmodium falciparum, UniProt Q8ILY1)
Sequence (Q8ILY1 entry or part of it): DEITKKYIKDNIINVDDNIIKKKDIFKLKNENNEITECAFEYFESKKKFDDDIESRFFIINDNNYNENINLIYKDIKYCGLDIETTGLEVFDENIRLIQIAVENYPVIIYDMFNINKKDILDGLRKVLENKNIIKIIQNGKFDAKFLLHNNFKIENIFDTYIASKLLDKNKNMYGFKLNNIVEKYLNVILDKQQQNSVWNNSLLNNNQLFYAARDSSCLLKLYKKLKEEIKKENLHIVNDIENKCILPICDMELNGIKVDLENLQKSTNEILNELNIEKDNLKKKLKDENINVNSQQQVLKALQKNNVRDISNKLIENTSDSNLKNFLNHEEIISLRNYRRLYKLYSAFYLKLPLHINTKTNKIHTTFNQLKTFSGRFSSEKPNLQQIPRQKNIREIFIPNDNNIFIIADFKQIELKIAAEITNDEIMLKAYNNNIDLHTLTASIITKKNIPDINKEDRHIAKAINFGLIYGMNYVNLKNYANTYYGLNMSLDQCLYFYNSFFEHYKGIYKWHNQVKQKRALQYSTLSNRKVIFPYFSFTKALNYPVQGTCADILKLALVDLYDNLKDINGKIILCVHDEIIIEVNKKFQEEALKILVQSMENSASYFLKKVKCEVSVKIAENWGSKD
protocol: Fluorescence-based high-throughput DNA polymerase assay (molecular beacon), primary screen and dose-response;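 also: test concentration in µM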
Format: biochemical
details: DRC-2, 180', concentration 5
measured_property: % inhibition apPOL 180' (%)
Kindly provide the numeric value in % only, without the unit symbol.

[[record]]
molecule = "CS(=O)(=O)c1cccc(C(=O)Nc2nnc(-c3ccno3)o2)c1 [KU0171319]"
tested_system = "P. falciparum apicoplast DNA polymerase (Pf-apPOL) (Plasmodium falciparum, UniProt Q8ILY1)"
numeric_readout = -8

[[record]]
molecule = "O=C(O)CC1SC(c2ccc3c(c2)OCO3)=NC1=O (stereo not shown) [Molecule 69, OC(=O)CC1SC(=NC1=O)c1ccc2c(c1)OCO2]"
tested_system = "P. falciparum apicoplast DNA polymerase (Pf-apPOL) (Plasmodium falciparum, UniProt Q8ILY1)"
numeric_readout = -1.56

[[record]]
molecule = "COc1ccccc1CCC(=O)N1CCc2c(nc3cc(-c4ccccc4)[nH]n3c2=O)C1 [Molecule 7]"
tested_system = "P. falciparum apicoplast DNA polymerase (Pf-apPOL) (Plasmodium falciparum, UniProt Q8ILY1)"
numeric_readout = 21


Moving on to the next molecule.
For CCOC(=O)C(NCc1ccco1)(NC(=O)c1ccco1)C(F)(F)F (stereo not shown) [KU0276119] , what is its reported % inhibition apPOL 180'?
-7
